- Test system: Mythimna separata
- PROCEDURE SUMMARY: In vivo insecticidal activity against pre-third-instar larval stage of Mythimna separata (Oriental armyworm) in corn leaves assessed as corrected mortality rate at 1 mg/ml treated for 3 secs before larval infestation measured after 12 days by leaf-dipping method
- Assay type: functional
- CONDITION NOTES: 288 h
VALUE KIND: mortality at 1000 µg/mL
Just so you know, I need the unit written after the number.

molecule=COc1cc([C@@H]2c3cc4c(cc3C[C@H]3COC(=O)[C@@H]32)OCO4)cc(OC)c1OC(=O)c1ccc([N+](=O)[O-])cc1 system_name="Mythimna separata" value_kind="mortality at 1000 µg/mL" recorded_value=7.1%
molecule=COc1cc([C@@H]2c3cc4c(cc3C[C@H]3COC(=O)[C@@H]32)OCO4)cc(OC)c1OC(=O)c1ccc(C)cc1 system_name="Mythimna separata" value_kind="mortality at 1000 µg/mL" recorded_value=7.1%
molecule=COc1cc([C@@H]2c3cc4c(cc3C[C@H]3COC(=O)[C@@H]32)OCO4)cc(OC)c1OC(=O)Cc1ccccc1 system_name="Mythimna separata" value_kind="mortality at 1000 µg/mL" recorded_value=10.7%
molecule=COc1cc([C@@H]2c3cc4c(cc3C[C@H]3COC(=O)[C@@H]32)OCO4)cc(OC)c1OC(=O)c1ccccc1 system_name="Mythimna separata" value_kind="mortality at 1000 µg/mL" recorded_value=28.5%
molecule=COc1cc([C@@H]2c3cc4c(cc3C[C@H]3COC(=O)[C@@H]32)OCO4)cc(OC)c1OC(=O)c1cc([N+](=O)[O-])cc([N+](=O)[O-])c1 system_name="Mythimna separata" value_kind="mortality at 1000 µg/mL" recorded_value=14.2%

[ask] Which value of mortality at 1000 µg/mL has been reported for `COc1cc([C@@H]2c3cc4c(cc3C[C@H]3COC(=O)[C@@H]32)OCO4)cc(OC)c1OC(=O)/C=C/c1ccccc1` in the records?
[reply] 10.7%

[ask] Return reported mortality at 1000 µg/mL; argument: `COc1cc([C@@H]2c3cc4c(cc3C[C@H]3COC(=O)[C@@H]32)OCO4)cc(OC)c1OC(=O)c1ccc(Cl)cc1`
[reply] 0%

Numbers sourced from ChEMBL document CHEMBL3046209.
